Value source: paper PMC3716607

Biological target: VA387 P dimers binding to type A and B saliva HBGAs (Norovirus GII.4 (Human calicivirus NLV/VA98387/1998))
Sequence (Q913Z3 entry or part of it): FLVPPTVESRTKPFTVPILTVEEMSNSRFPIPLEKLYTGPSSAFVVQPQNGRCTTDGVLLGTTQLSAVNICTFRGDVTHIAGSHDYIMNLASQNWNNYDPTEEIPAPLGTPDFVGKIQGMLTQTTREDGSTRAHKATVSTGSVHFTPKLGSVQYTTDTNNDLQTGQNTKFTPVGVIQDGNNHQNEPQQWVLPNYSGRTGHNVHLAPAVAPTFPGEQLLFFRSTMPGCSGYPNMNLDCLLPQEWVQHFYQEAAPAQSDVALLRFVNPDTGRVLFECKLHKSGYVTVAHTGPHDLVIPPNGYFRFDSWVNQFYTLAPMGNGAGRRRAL
Experiment: biochemical
Set-up: species or system GII.4 NoV (VA387)
Details: Activity (IC50), against binding of VA387 to the A and B saliva
Description: Saliva-based NoV-HBGA binding assays were performed as described previously using P dimers of VA387 (GII.4) as NoV surrogates and saliva samples and/or synthetic oligosaccharides as HBGA sources, [34], [35]. […] The bound P dimer was detected using a guinea pig antiserum against NoVs VLPs, followed by the addition of horseradish peroxidase (HRP)-conjugated goat anti-guinea pig IgG. […]
The following compounds are shown together with reported IC50 values.

Sample records with IC50:
Lookup result for CC(CCC(=O)O)C1CCC2C3CC=C4CC(O)CCC4(C)C3CCC12C (stereo not drawn) ; measured IC50: 1 to 10 µM

Lookup result for C/C(=N/O)C1=CCC2C3CC[C@H]4C/C(=N\O)CC[C@]4(C)C3CC[C@]12C (stereo partly drawn) ; measured IC50: 1 to 10 µM

Others:
Lookup result for CC(=O)C1=CCC2C3CC=C4CC(O)CCC4(C)C3CCC12C (stereo not drawn) ; measured IC50: 20 to 40 µM

Lookup result for CC12CCC(=NOCC(=O)NCC(=O)O)C=C1CCC1C2CCC2(C)C(O)CCC12 (stereo not drawn) ; measured IC50: 10 to 20 µM

Lookup result for C[C@]12CCC3C(CC[C@H]4CC=CC[C@]34C)C1CC/C2=N/NC(N)=S (stereo partly drawn) ; measured IC50: 1 to 10 µM

Lookup result for COc1cc([N+](=O)[O-])cc2c1NC(c1ccccn1)C1CC=CC21 (stereo not drawn) ; measured IC50: 20 to 40 µM

Lookup result for CC(=O)C1CCC2C3CCC4CC(O)CCC4(C)C3CCC12C (stereo not drawn) ; measured IC50: 1 to 10 µM

Lookup result for `C[C@]12CC[C@H](O)C[C@@H]1CC[C@@H]1[C@@H]2CC[C@@]2(C)[C@H]1CC[C@]2(C)O` ; measured IC50: 1 to 10 µM

Lookup result for CC12CCC(O)C=C1CCC1C2CCC2(C)C1CCC21CCC(=O)O1 (stereo not drawn) ; measured IC50: 20 to 40 µM
